Tested on: Nicotinate-nucleotide adenylyltransferase NadD (Staphylococcus aureus N315)
method-notes: inhibitors of S. aureus NadD, primary screen, biochemical, colorimetric, uHTS (AID 602399)
details: purified NadD enzyme, colorimetric absorbance read-out; at 20 µM; active compounds read high
Among all 360,000 compounds or so, about 2,800 (0.78%) were called active. Many of the other results were omitted from the sample, so actives are more common in it than they were.
Each entry below lists one item and its recorded inhibition value.

compound-smiles	inhibition [%]
O=C1CCCN1C(=O)COc1ccc([N+](=O)[O-])cc1	0.0869
CCn1c(SCC(=O)Nc2ccc(S(=O)(=O)Nc3onc(C)c3C)cc2)nnc1-c1ccccc1	7.88
Cc1cc(C)c2nc(-c3cccnc3)cc(C(=O)Nc3ccc(S(=O)(=O)Nc4onc(C)c4C)cc3)c2c1	42.3
Cc1noc(NS(=O)(=O)c2ccc(NC(=O)c3oc4ccc(F)cc4c3C)cc2)c1C	0
O=C1/C(=C\c2ccc([N+](=O)[O-])cc2)CS(=O)(=O)C/C1=C/c1ccc([N+](=O)[O-])cc1	35.3
